target: BCRP (Homo sapiens, UniProt Q9UNQ0); construct: expressed in transfected cells; host or cells: MDCK II; experiment: Transport of baicalin across MDCK II-BCRP cell monolayer (transwell); format: in vitro ADME; details: pH 7.4, MDCK II-BCRP, 100 μM BG + 1% PEG400
Sequence (Q9UNQ0 whole entry): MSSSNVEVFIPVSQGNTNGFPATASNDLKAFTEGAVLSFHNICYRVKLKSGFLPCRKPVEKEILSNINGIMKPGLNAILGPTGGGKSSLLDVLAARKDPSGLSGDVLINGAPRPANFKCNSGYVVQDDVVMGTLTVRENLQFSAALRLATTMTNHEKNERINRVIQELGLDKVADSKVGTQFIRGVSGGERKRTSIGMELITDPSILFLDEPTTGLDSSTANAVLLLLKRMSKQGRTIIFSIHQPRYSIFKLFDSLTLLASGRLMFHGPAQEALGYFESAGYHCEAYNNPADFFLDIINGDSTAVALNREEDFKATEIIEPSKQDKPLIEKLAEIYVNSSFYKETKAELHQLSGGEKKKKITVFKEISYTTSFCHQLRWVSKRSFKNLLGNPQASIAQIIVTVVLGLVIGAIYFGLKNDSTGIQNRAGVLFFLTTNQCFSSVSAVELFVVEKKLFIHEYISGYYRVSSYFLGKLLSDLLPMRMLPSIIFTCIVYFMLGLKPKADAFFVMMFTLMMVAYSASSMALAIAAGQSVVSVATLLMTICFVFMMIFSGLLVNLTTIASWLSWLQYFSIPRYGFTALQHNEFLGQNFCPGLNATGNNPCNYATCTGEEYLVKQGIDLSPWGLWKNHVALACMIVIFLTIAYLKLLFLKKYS
Measurement Name: Papp A→B at 120 min, 100 μM (×10⁻⁶ cm/s)

- Compound: "O=C(O)[C@H]1O[C@@H](Oc2cc3oc(-c4ccccc4)cc(=O)c3c(O)c2O)[C@H](O)[C@@H](O)[C@@H]1O [BG, Baicalein-7-O-β-D-glucuronide]"
  Measurement Name: "Papp A→B at 120 min, 100 μM"
  Experimental Result: 8.59

* * *

target: MRP2 (Homo sapiens); construct: expressed in transfected cells; host or cells: MDCK II; assay: Transport of baicalin across MDCK II-MRP2 cell monolayer (transwell); format: in vitro ADME; conditions: pH 7.4, MDCK II-MRP2, 100 μM BG + 1% PEG400
Measurement Name: Papp B→A at 120 min, 100 μM

- Compound: "O=C(O)[C@H]1O[C@@H](Oc2cc3oc(-c4ccccc4)cc(=O)c3c(O)c2O)[C@H](O)[C@@H](O)[C@@H]1O [BG, Baicalein-7-O-β-D-glucuronide]"
  Study System: "MRP2 (Homo sapiens)"
  Measurement Name: "Papp B→A at 120 min, 100 μM"
  Experimental Result: "2.53 ×10⁻⁶ cm/s"

* * *

target: MRP3 (Homo sapiens); construct: host or cells: MDCK II; experiment: Transport of baicalin across MDCK II-MRP3 cell monolayer (transwell); format: in vitro ADME; conditions: human, pH 7.4, MDCK II-MRP3; 100 μM BG alone
Sequence (O15438 whole entry): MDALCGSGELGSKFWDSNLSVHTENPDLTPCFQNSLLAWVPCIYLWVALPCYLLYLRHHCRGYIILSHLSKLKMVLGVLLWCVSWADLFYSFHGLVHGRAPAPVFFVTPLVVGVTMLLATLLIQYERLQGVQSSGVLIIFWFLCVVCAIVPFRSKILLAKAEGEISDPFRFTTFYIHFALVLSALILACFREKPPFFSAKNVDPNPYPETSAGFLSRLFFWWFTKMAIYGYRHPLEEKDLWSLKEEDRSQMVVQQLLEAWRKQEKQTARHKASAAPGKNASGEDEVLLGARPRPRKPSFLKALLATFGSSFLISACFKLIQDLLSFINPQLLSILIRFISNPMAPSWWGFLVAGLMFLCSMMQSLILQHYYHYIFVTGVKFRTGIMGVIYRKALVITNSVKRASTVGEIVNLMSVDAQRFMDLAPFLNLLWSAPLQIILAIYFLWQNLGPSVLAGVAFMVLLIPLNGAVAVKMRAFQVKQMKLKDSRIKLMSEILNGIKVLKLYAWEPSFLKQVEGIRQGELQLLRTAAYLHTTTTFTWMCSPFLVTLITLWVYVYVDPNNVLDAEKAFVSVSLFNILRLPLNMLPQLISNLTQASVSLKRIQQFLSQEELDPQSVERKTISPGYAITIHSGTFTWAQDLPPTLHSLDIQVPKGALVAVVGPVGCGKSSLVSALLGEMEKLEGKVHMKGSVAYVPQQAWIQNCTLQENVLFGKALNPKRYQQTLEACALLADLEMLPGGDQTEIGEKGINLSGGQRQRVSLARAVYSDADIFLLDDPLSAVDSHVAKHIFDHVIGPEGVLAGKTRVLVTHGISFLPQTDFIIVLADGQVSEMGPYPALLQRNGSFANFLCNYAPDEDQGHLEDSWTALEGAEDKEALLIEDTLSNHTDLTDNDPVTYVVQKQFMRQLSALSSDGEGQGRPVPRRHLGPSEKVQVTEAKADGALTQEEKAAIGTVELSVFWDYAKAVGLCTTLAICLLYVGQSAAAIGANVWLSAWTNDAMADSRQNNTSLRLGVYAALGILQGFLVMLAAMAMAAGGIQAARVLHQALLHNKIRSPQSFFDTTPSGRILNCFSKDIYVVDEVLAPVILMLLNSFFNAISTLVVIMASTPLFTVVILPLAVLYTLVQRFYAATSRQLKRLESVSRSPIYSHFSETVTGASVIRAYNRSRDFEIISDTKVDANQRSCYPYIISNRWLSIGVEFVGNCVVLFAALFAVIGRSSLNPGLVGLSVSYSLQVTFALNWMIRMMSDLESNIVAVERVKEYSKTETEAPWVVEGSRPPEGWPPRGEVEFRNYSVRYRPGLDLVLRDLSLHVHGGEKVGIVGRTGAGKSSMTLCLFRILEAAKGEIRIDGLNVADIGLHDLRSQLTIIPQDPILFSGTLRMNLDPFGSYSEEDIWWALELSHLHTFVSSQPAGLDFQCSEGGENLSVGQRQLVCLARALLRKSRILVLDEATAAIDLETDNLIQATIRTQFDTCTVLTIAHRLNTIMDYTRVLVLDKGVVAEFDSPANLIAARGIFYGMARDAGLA

- Molecule: "O=C(O)[C@H]1O[C@@H](Oc2cc3oc(-c4ccccc4)cc(=O)c3c(O)c2O)[C@H](O)[C@@H](O)[C@@H]1O [BG, Baicalein-7-O-β-D-glucuronide]"
  Papp B→A at 120 min, 100 μM (×10⁻⁶ cm/s): 1.18

* * *

molecular target: MRP2 (Homo sapiens, UniProt Q92887); construct: expressed in transfected cells; host or cells: MDCK II; assay: Transport of baicalin across MDCK II-MRP2 cell monolayer (transwell); type: in vitro ADME; conditions: pH 7.4, MDCK II-MRP2, 100 μM BG + 1% PEG400, read-out: ER
Sequence (Q92887 whole entry): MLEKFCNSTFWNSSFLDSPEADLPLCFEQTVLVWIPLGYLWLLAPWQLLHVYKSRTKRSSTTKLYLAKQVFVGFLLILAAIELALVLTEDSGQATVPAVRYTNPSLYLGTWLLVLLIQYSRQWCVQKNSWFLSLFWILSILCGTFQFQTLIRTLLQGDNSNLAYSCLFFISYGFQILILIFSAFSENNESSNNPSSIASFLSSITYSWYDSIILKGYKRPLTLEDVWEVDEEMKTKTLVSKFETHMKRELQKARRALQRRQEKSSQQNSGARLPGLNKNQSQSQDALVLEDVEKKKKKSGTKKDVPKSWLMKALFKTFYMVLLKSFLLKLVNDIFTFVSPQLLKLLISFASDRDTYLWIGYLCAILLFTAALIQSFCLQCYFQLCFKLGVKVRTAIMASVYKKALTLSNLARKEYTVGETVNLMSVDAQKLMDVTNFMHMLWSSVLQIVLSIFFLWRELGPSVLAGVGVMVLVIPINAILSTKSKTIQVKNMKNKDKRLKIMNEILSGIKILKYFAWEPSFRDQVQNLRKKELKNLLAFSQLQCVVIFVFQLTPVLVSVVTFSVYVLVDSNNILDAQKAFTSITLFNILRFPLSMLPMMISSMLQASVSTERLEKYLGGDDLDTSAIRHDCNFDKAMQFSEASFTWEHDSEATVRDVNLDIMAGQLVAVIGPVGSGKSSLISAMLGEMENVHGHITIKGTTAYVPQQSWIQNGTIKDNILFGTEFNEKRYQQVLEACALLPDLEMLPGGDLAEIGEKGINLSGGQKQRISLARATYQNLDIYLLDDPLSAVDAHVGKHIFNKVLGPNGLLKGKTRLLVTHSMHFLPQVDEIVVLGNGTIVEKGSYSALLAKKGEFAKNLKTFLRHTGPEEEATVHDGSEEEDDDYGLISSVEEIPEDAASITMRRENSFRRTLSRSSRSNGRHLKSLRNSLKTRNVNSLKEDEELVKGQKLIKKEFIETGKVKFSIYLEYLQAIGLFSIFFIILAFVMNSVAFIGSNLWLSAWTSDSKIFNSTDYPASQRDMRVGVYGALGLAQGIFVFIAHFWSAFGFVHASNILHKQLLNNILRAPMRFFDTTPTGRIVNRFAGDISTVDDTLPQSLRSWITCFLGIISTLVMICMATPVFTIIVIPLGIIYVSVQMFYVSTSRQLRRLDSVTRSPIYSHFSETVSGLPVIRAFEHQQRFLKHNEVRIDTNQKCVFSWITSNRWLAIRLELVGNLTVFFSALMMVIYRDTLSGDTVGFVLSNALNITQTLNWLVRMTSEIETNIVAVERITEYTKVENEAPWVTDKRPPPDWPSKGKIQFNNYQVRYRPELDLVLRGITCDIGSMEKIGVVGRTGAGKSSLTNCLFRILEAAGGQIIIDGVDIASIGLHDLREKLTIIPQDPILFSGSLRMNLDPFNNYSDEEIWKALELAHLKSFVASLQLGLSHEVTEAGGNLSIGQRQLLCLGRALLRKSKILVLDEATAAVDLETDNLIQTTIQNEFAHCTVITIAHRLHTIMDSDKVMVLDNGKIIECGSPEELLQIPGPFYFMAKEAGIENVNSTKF

- Compound: "O=C(O)[C@H]1O[C@@H](Oc2cc3oc(-c4ccccc4)cc(=O)c3c(O)c2O)[C@H](O)[C@@H](O)[C@@H]1O [BG, Baicalein-7-O-β-D-glucuronide]"
  efflux ratio at 120 min, 100 μM: 0.8

* * *

molecular target: MRP3 (Homo sapiens); construct: host or cells: MDCK II; test: Transport of baicalin across MDCK II-MRP3 cell monolayer (transwell); type: in vitro ADME; settings: human, pH 7.4, MDCK II-MRP3; 100 μM BG + 0.5% PEG400
Measurement Name: Papp A→B at 120 min, 100 μM (×10⁻⁶ cm/s)

- Molecule: "O=C(O)[C@H]1O[C@@H](Oc2cc3oc(-c4ccccc4)cc(=O)c3c(O)c2O)[C@H](O)[C@@H](O)[C@@H]1O [BG, Baicalein-7-O-β-D-glucuronide]"
  Measurement Name: "Papp A→B at 120 min, 100 μM"
  Experimental Result: 1.77

* * *

Reported half-life at 100 μM is given for each of the following compounds.
assay: Pharmacokinetic study of baicalin in HepG2 cells (intracellular concentrations by UPLC-MS/MS); format: in vitro ADME, human; settings: human, HepG2 cells, intracellular, HepG2 cells given 100 μM baicalin alone (group BG, control)

- Compound: "O=C(O)[C@H]1O[C@@H](Oc2cc3oc(-c4ccccc4)cc(=O)c3c(O)c2O)[C@H](O)[C@@H](O)[C@@H]1O [BG, Baicalein-7-O-β-D-glucuronide]"
  half-life at 100 μM [h]: 6.77
- Compound: "O=c1cc(-c2ccccc2)oc2cc(O)c(O)c(O)c12"
  half-life at 100 μM [h]: 17.6

* * *

assay: Pharmacokinetic study of baicalin in HepG2 cells (intracellular concentrations by UPLC-MS/MS); assay type: in vitro ADME, human; details: human, HepG2 cells, intracellular, HepG2 cells given 100 μM baicalin + M PEG400 (0.5%)
Reported AUC(0-t) at 100 μM is given for each of the following compounds.

- Compound: "O=C(O)[C@H]1O[C@@H](Oc2cc3oc(-c4ccccc4)cc(=O)c3c(O)c2O)[C@H](O)[C@@H](O)[C@@H]1O [BG, Baicalein-7-O-β-D-glucuronide]"
  AUC(0-t) at 100 μM, ng·h/mL: 112000
- Compound: "O=c1cc(-c2ccccc2)oc2cc(O)c(O)c(O)c12 [B, baicalein]"
  AUC(0-t) at 100 μM, ng·h/mL: 5480

* * *

Reported Cmax at 100 μM is given for each of the following molecules.
test: Pharmacokinetic study of baicalin in HepG2 cells (intracellular concentrations by UPLC-MS/MS); type: in vitro ADME, human; conditions: human, HepG2 cells, intracellular, HepG2 cells given 100 μM baicalin + L PEG400 (0.25%)

- Molecule: "O=c1cc(-c2ccccc2)oc2cc(O)c(O)c(O)c12"
  Cmax at 100 μM / ng/mL: 550
- Molecule: "O=C(O)[C@H]1O[C@@H](Oc2cc3oc(-c4ccccc4)cc(=O)c3c(O)c2O)[C@H](O)[C@@H](O)[C@@H]1O [BG, Baicalein-7-O-β-D-glucuronide]"
  Cmax at 100 μM / ng/mL: 10200

* * *

target: BCRP (Homo sapiens); construct: expressed in transfected cells; host or cells: MDCK II; assay: Transport of baicalin across MDCK II-BCRP cell monolayer (transwell); format: in vitro ADME; conditions: pH 7.4, MDCK II-BCRP, 100 μM BG + 0.5% PEG400

- Compound: "O=C(O)[C@H]1O[C@@H](Oc2cc3oc(-c4ccccc4)cc(=O)c3c(O)c2O)[C@H](O)[C@@H](O)[C@@H]1O [BG, Baicalein-7-O-β-D-glucuronide]"
  Study System: "BCRP (Homo sapiens)"
  Papp A→B at 120 min, 100 μM (×10⁻⁶ cm/s): 7.4

* * *

biological target: MRP3 (Homo sapiens); construct: host or cells: MDCK II; assay: Transport of baicalin across MDCK II-MRP3 cell monolayer (transwell); type: in vitro ADME; conditions: human, pH 7.4, MDCK II-MRP3; 100 μM BG + 0.25% PEG400
Measurement Name: Papp B→A at 120 min, 100 μM (×10⁻⁶ cm/s)

- Compound: "O=C(O)[C@H]1O[C@@H](Oc2cc3oc(-c4ccccc4)cc(=O)c3c(O)c2O)[C@H](O)[C@@H](O)[C@@H]1O [BG, Baicalein-7-O-β-D-glucuronide]"
  Measurement Name: "Papp B→A at 120 min, 100 μM"
  Experimental Result: 1.04

* * *

biological target: BCRP (Homo sapiens, UniProt Q9UNQ0); construct: expressed in transfected cells; host or cells: MDCK II; assay: Transport of baicalin across MDCK II-BCRP cell monolayer (transwell); assay type: in vitro ADME; settings: pH 7.4, MDCK II-BCRP, 100 μM BG alone

- Compound: "O=C(O)[C@H]1O[C@@H](Oc2cc3oc(-c4ccccc4)cc(=O)c3c(O)c2O)[C@H](O)[C@@H](O)[C@@H]1O [BG, Baicalein-7-O-β-D-glucuronide]"
  Study System: "BCRP (Homo sapiens, UniProt Q9UNQ0)"
  Papp B→A at 120 min, 100 μM / ×10⁻⁶ cm/s: 10.3

* * *

assay: Pharmacokinetic study of baicalin in HepG2 cells (intracellular concentrations by UPLC-MS/MS); format: in vitro ADME, human; conditions: human; intracellular, HepG2 cells given 100 μM baicalin alone (group BG, control)
Reported Tmax at 100 μM is given for each of the following molecules.

- Molecule: "O=C(O)[C@H]1O[C@@H](Oc2cc3oc(-c4ccccc4)cc(=O)c3c(O)c2O)[C@H](O)[C@@H](O)[C@@H]1O [BG, Baicalein-7-O-β-D-glucuronide]"
  Tmax at 100 μM (h): 6
- Molecule: "O=c1cc(-c2ccccc2)oc2cc(O)c(O)c(O)c12"
  Tmax at 100 μM (h): 6

* * *

target: MRP2 (Homo sapiens); construct: expressed in transfected cells; host or cells: MDCK II; experiment: Transport of baicalin across MDCK II-MRP2 cell monolayer (transwell); type: in vitro ADME; details: pH 7.4, MDCK II-MRP2, 100 μM BG + 0.25% PEG400

- Compound: "O=C(O)[C@H]1O[C@@H](Oc2cc3oc(-c4ccccc4)cc(=O)c3c(O)c2O)[C@H](O)[C@@H](O)[C@@H]1O [BG, Baicalein-7-O-β-D-glucuronide]"
  Papp A→B at 120 min, 100 μM / ×10⁻⁶ cm/s: 1.27
